B1: N-terminal GST-fused wild-type PREP1 [not stated] / PBX1_(1-430), wild-type recombinant [human] (parent complex)
chain 1: MMATQTLSIDSYQDGQQMQVVTELKTEQDPNCSEPDAEGVSPPPVESQTPMDVDKQAIYRHPLFPLLALLFEKCEQSTQGSEGTTSASFDVDIENFVRKQEKEGKPFFCEDPETDNLMVKAIQVLRIHLLELEKVNELCKDFCSRYIACLKTKMNSETLLSGEPGSPYSPVQSQQIQSAITGTISPQGIVVPASALQQGNVAMATVAGGTVYQPVTVVTPQGQVVTQTLSPGTIRIQNSQLQLQLNQDLSILHQDDGSSKNKRGVLPKHATNVMRSWLFQHIGHPYPTEDEKKQIAAQTNLTLLQVNNWFINARRRILQPMLDSSCSETPKTKKKTAQNRPVQRFWPDSIASGVAQPPPSELTMSEGAVVTITTPVNMNVDSLQSLSSDGATLAVQQVMMAGQSEDESVDSTEEDAGALAPAHISGLVLENSDSLQ
chain 2: MDEQPRLMHSHAGVGMAGHPGLSQHLQDGAGGTEGEGGRKQDIGDILQQIMTITDQSLDEAQARKHALNCHRMKPALFNVLCEIKEKTVLSIRGAQEEEPTDPQLMRLDNMLLAEGVAGPEKGGGSAAAAAAAAASGGAGSDNSVEHSDYRAKLSQIRQIYHTELEKYEQACNEFTTHVMNLLREQSRTRPISPKEIERMVSIIHRKFSSIQMQLKQSTCEAVMILRSRFLDARRKRRNFNKQATEILNEYFYSHLSNPYPSEEAKEELAKKCGITVSQVSNWFGNKRIRYKKNIGKFQEEANIYAAKTAVTATNVSAHGSQANSPSTPNSAGSSSSFNMSNSGDLFMSVQSLNGDSYQGAQVGANVQSQVDTLRHVISQTGGYSDGLAASQMYSPQGISANGGWQDATTPSSVTSPTEGPGSVHSDTSN

variants of: B1; assay: TR-FIA; parent: 1; read off a plot
Kindly state ratio to parent for each of the entries shown.

Specify measured ratio to parent for chain 1 L70A .
~0.53

Specify measured ratio to parent for chain 1 V124A .
~0.91

Specify measured ratio to parent for chain 1 L66A .
~0.59

Specify measured ratio to parent for chain 1 L245A .
~1

Specify measured ratio to parent for chain 1 I122A .
~0.79

Specify measured ratio to parent for chain 1 L117A .
~0.48

Specify measured ratio to parent for chain 1 L249A .
~0.96

Specify measured ratio to parent for chain 1 L125A .
~0.63

Specify measured ratio to parent for chain 1 I251A .
~0.88

Specify measured ratio to parent for chain 1 L252A .
~0.95

Specify measured ratio to parent for chain 1 L130A .
~0.79

Specify measured ratio to parent for chain 1 L67A .
~0.65

Specify measured ratio to parent for chain 1 L63A .
~0.6

Specify measured ratio to parent for chain 1 L69A .
~1.1

Specify measured ratio to parent for chain 1 L129A .
~0.43

Specify measured ratio to parent for chain 1 L63A, chain 1 L66A, chain 1 L67A, chain 1 L70A .
~0.58

The reported measurements were obtained from paper PMC7545097.
